Each entry below carries its recorded VDR Binding.
Target: recombinant VDR (Homo sapiens)
Construct: purchased Thermo Fisher Scientific
Sequence (P11473 whole entry): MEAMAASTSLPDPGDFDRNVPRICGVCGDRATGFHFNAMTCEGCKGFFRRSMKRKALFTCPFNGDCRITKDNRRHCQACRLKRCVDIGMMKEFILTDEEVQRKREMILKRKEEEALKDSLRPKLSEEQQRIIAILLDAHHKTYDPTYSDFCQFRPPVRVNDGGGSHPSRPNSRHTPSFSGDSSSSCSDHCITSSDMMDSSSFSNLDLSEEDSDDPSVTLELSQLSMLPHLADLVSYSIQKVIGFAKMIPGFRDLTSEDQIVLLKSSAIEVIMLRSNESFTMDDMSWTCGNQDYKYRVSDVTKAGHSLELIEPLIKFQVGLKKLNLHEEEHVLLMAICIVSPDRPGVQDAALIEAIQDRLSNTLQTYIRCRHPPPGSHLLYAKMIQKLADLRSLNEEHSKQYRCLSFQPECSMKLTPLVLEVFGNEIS
Assay: VDR binding, fluorescence polarization-based competition assay (PolarScreen VDR Competitor Assay Red)
Conditions: compounds evaluated at 100 μM

# compound, target or test system, VDR Binding
measured = [
    ("C[C@H](COCC(C)(C)O)[C@H]1CC[C@H]2[C@@H](OC(=O)c3cc([N+](=O)[O-])cc([N+](=O)[O-])c3)CCC[C@]12C [Compound 4f]", "recombinant VDR (Homo sapiens)", ">100 µM"),
    ("C[C@H](COCC(C)(C)O)[C@H]1CC[C@H]2[C@@H](OC(=O)c3ccc(Cl)cc3)CCC[C@]12C [Compound 4e]", "recombinant VDR (Homo sapiens)", ">100 µM"),
    ("C=C1CC[C@H](O)C/C1=C/C=C1\\CCC[C@]2(C)[C@@H]([C@H](C)CCCC(C)C)CC[C@@H]12 [VD3, Vitamin D3]", "recombinant VDR (Homo sapiens)", ">100 µM"),
    ("CC(C)COC[C@@H](C)[C@H]1CC[C@H]2[C@@H](OC(=O)c3ccc(Cl)cc3)CCC[C@]12C [Compound 3e]", "recombinant VDR (Homo sapiens)", ">100 µM"),
    ("C[C@H](COCC(C)(C)O)[C@H]1CC[C@H]2[C@@H](OC(=O)c3ccccc3)CCC[C@]12C [Compound 4a]", "recombinant VDR (Homo sapiens)", ">100 µM"),
    ("CC(C)COC[C@@H](C)[C@H]1CC[C@H]2[C@@H](OC(=O)c3ccc(O)cc3)CCC[C@]12C [Compound 3k]", "recombinant VDR (Homo sapiens)", ">100 µM"),
    ("COc1ccc(C(=O)O[C@H]2CCC[C@]3(C)[C@@H]([C@H](C)COCC(C)(C)O)CC[C@@H]23)cc1O [Compound 4g]", "recombinant VDR (Homo sapiens)", ">100 µM"),
    ("CC(C)COC[C@@H](C)[C@H]1CC[C@H]2[C@@H](OC(=O)c3cccc(O)c3)CCC[C@]12C [Compound 3i]", "recombinant VDR (Homo sapiens)", ">100 µM"),
    ("C[C@H](COCC(C)(C)O)[C@H]1CC[C@H]2[C@@H](OC(=O)c3ccc(O)cc3)CCC[C@]12C [Compound 4j]", "recombinant VDR (Homo sapiens)", ">100 µM"),
]

* * *

Tested on: VDR signaling (Cyp24A1 mRNA) in C3H10T1/2 cells
Test: Cyp24A1 mRNA up-regulation (qPCR) in C3H10T1/2 cells
Assay type: cell-based, mouse
Details: Mus musculus, C3H 10T1/2, 5 μM with OHCs 5 μM, 24 h, relative to DMSO (set to 1.0)

# item smiles, fold induction at 5 µM
measured = [
    ("CC(C)COC[C@@H](C)[C@H]1CC[C@H]2[C@@H](O)CCC[C@]12C", 1.6),
    ("C=C1CC[C@H](O)C/C1=C/C=C1\\CCC[C@]2(C)[C@@H]([C@H](C)CCCC(C)C)CC[C@@H]12", 8350),
    ("CC(C)COC[C@@H](C)[C@H]1CC[C@H]2[C@@H](OC(=O)c3ccc(Cl)cc3)CCC[C@]12C", 67.8),
    ("CC(C)COC[C@@H](C)[C@H]1CC[C@H]2[C@@H](OC(=O)c3ccc(O)cc3)CCC[C@]12C", 32.1),
]
